Just for reference, patent US20260022143A1 is where these values come from.

Quick list: EPSA per entry.
# ASSAY_EXPLANATION: Exposed Polar Surface Area (EPSA)
# Format: physicochemical
# TEST_CONTEXT: SFC on Chirex 3014 column; sample 1 mM DMSO stock; read-out: EPSA
Hi! Could you send only the number? It should be in A^2, unit omitted.

COMPOUND	READOUT_UNIT	EPSA
CC(=O)NCCCC[C@@H]1NC(=O)[C@H](Cc2c[nH]c3c(-c4cccc(NC(C)=O)c4)cccc23)NC(=O)[C@H]([C@@H](C)O)NC(=O)[C@H](CC(N)=O)NC(=O)[C@@H](NC(C)=O)C(C)(C)SSC(C)(C)[C@@H](C(=O)N[C@@H](Cc2ccc(OCCCCC[N+](C)(C)C)cc2)C(=O)N[C@@H](Cc2ccc3ccccc3c2)C(=O)NC2(C(=O)N[C@@H](CCCCN(C)C(C)=O)C(=O)N[C@@H](CC(N)=O)C(=O)N[C@@H](Cc3cncc(C)c3)C(=O)N(C)CC(N)=O)CCOCC2)NC1=O [compound 502]	A^2	169

Give recorded EPSA. CC(=O)N(C)CCCC[C@H](NC(=O)C1(NC(=O)[C@H](Cc2ccc3ccccc3c2)NC(=O)[C@H](Cc2ccc(OCCCCC[N+](C)(C)C)cc2)NC(=O)[C@H]2NC(=O)[C@H](COCCOCC[N+](C)(C)C)NC(=O)[C@H](Cc3c[nH]c4c(C)cccc34)NC(=O)[C@H]([C@@H](C)O)NC(=O)[C@H](CC(=O)N(C)C)NC(=O)[C@@H](NC(=O)CCOCCOCC[N+](C)(C)C)C(C)(C)SSC2(C)C)CCOCC1)C(=O)N[C@@H](CC(N)=O)C(=O)N[C@@H](Cc1cccnc1)C(=O)N(C)CC(=O)N(C)C (relative stereo) [compound 247]
145

Give recorded EPSA. CC(=O)N(C)CCCC[C@@H]1NC(=O)[C@H](Cc2c[nH]c3c(C)cccc23)NC(=O)[C@H]([C@@H](C)O)NC(=O)[C@H](CC(=O)N(C)C)NC(=O)[C@@H](NC(=O)CCOCCOCC[N+](C)(C)C)C(C)(C)SSC(C)(C)[C@@H](C(=O)N[C@@H](Cc2ccc(OCC3CCC([N+](C)(C)C)CC3)cc2)C(=O)N[C@@H](Cc2ccc3ccccc3c2)C(=O)NC2(C(=O)N[C@@H](CCCCN(C)C(C)=O)C(=O)N[C@@H](CC(N)=O)C(=O)N[C@@H](Cc3cccnc3)C(=O)N(C)CC(=O)N(C)C)CCOCC2)NC1=O (single isomer, unassigned) [compound 210]
145

Give recorded EPSA. CC(=O)NCCCC[C@@H]1NC(=O)[C@H](Cc2c[nH]c3c(C)cccc23)NC(=O)[C@H]([C@@H](C)O)NC(=O)[C@H](CC(N)=O)NC(=O)[C@@H](NC(C)=O)C(C)(C)SSC(C)(C)[C@@H](C(=O)N[C@@H](Cc2ccc(OCCCCC[N+](C)(C)C)cc2)C(=O)N[C@@H](Cc2ccc3ccccc3c2)C(=O)NC2(C(=O)N[C@@H](CCCCNC(C)=O)C(=O)N[C@@H](CC(N)=O)C(=O)N[C@@H](Cc3cccnc3)C(=O)N(C)CC(N)=O)CCCCC2)NC1=O [compound 538]
163

----------
# ASSAY_EXPLANATION: Exposed Polar Surface Area (EPSA)
# Type: physicochemical
# TEST_CONTEXT: SFC on Chirex 3014 column; sample 1 mM DMSO stock; read-out: EPSA
ENDPOINT: EPSA (A^2)
Hi! Could you send only the number? It should be in A^2, unit omitted.

Give recorded EPSA. COCCOCCOCCOCCOCCOCCOCCOCCNC(=O)CN(C)C(=O)[C@H](Cc1cccnc1)NC(=O)[C@H](CC(N)=O)NC(=O)[C@H](CCC(=O)O)NC(=O)C1(NC(=O)[C@H](Cc2ccc3ccccc3c2)NC(=O)[C@H](Cc2ccc(OCCN)cc2)NC(=O)[C@H]2NC(=O)[C@H](CCCCNC(C)=O)NC(=O)[C@H](Cc3c[nH]c4c(C)cccc34)NC(=O)[C@H]([C@@H](C)O)NC(=O)[C@H](CC(N)=O)NC(=O)[C@@H](NC(C)=O)C(C)(C)SSC2(C)C)CCOCC1
163

----------
# ASSAY_EXPLANATION: Exposed Polar Surface Area (EPSA)
# Type: physicochemical
# TEST_CONTEXT: SFC on Chirex 3014 column; sample 1 mM DMSO stock; read-out: EPSA
Quick list: EPSA per entry.
Hi! Could you send only the number? It should be in A^2, unit omitted.

MOLECULE	READOUT_UNIT	ENDPOINT_RESULT
CC(=O)N[C@H](COCCOCC[N+](C)(C)C)C(=O)N[C@@H]1C(=O)N[C@@H](CC(=O)N(C)C)C(=O)N[C@@H]([C@@H](C)O)C(=O)N[C@@H](Cc2c[nH]c3c(C)cccc23)C(=O)N[C@@H](CCCCN(C)C(C)=O)C(=O)N[C@H](C(=O)N[C@@H](Cc2ccc(OCCOCCOCC[N+](C)(C)C)cc2)C(=O)N[C@@H](Cc2ccc3ccccc3c2)C(=O)NC2(C(=O)N[C@@H](CCCCN(C)C(C)=O)C(=O)N[C@@H](CC(N)=O)C(=O)N[C@@H](Cc3cccnc3)C(=O)N(C)CC(=O)N(C)C)CCOCC2)C(C)(C)SSC1(C)C	A^2	140
CC(=O)N[C@@H](COCCOCC[N+](C)(C)C)C(=O)N[C@@H]1C(=O)N[C@@H](CC(=O)N(C)C)C(=O)N[C@@H]([C@@H](C)O)C(=O)N[C@@H](Cc2c[nH]c3c(C)cccc23)C(=O)N[C@@H](CCCCN(C)C(C)=O)C(=O)N[C@H](C(=O)N[C@@H](Cc2ccc(OCCOCCOCC[N+](C)(C)C)cc2)C(=O)N[C@@H](Cc2ccc3ccccc3c2)C(=O)NC2(C(=O)N[C@@H](CCCCN(C)C(C)=O)C(=O)N[C@@H](CC(N)=O)C(=O)N[C@@H](Cc3cccnc3)C(=O)N(C)CC(=O)N(C)C)CCOCC2)C(C)(C)SSC1(C)C (relative stereo)	A^2	151
CC(=O)N(C)CCCC[C@@H]1NC(=O)[C@H](Cc2c[nH]c3c(C)cccc23)NC(=O)[C@H]([C@@H](C)O)NC(=O)[C@H](CC(=O)N(C)C)NC(=O)[C@@H](NC(=O)CCOCCOCC[N+](C)(C)C)C(C)(C)SSC(C)(C)[C@@H](C(=O)N[C@@H](Cc2ccc(OCCN)cc2)C(=O)N[C@@H](Cc2ccc3ccccc3c2)C(=O)NC2(C(=O)N[C@@H](CCN(C)C(C)=O)C(=O)N[C@@H](CC(N)=O)C(=O)N[C@@H](Cc3cccnc3)C(=O)N(C)CC(=O)N(C)C)CCC(F)(F)C2)NC1=O (single isomer, unassigned)	A^2	147
CC(=O)NCCCC[C@@H]1NC(=O)[C@H](Cc2c[nH]c3c(C)cccc23)NC(=O)[C@H]([C@@H](C)O)NC(=O)[C@H](CC(N)=O)NC(=O)[C@@H](NC(=O)CCOCCOCC[N+](C)(C)C)C(C)(C)SSC(C)(C)[C@@H](C(=O)N[C@@H](Cc2ccc(OCCNC(=N)N)cc2)C(=O)N[C@@H](Cc2ccc3ccccc3c2)C(=O)NC2(C(=O)N[C@@H](CCC(=O)O)C(=O)N[C@@H](CC(N)=O)C(=O)N[C@@H](Cc3cncc(C)c3)C(=O)N(C)CC(N)=O)CCOCC2)NC1=O	A^2	248

Consider now this further molecule.
Give recorded EPSA. CC(=O)NCCCC[C@@H]1NC(=O)[C@H](Cc2c[nH]c3c(-c4cccc(NC(C)=O)c4)cccc23)NC(=O)[C@H]([C@@H](C)O)NC(=O)[C@H](CC(N)=O)NC(=O)[C@@H](NC(C)=O)C(C)(C)SSC(C)(C)[C@@H](C(=O)N[C@@H](Cc2ccc(OCCNC(=N)N)cc2)C(=O)N[C@@H](Cc2ccc3ccccc3c2)C(=O)NC2(C(=O)N[C@@H](CCCCN(C)C(C)=O)C(=O)N[C@@H](CC(N)=O)C(=O)N[C@@H](Cc3cccnc3)C(=O)N(C)CC(N)=O)CCOCC2)NC1=O
197

----------
Quick list: EPSA per entry.
# ASSAY_EXPLANATION: Exposed Polar Surface Area (EPSA)
# Assay type: physicochemical
# TEST_CONTEXT: SFC on Chirex 3014 column; sample 1 mM DMSO stock; read-out: EPSA
# Experimental: Exposed Polar Surface Area (EPSA) is an experimental descriptor of molecular polarity obtained from chromatographic retention in supercritical fluid chromatography (SFC). […] Along with the measurement of compounds of interest, a series of 8 calibration standards (see Materials) are analyzed generating a linear relationship between retention times and EPSA value. […]
Hi! Could you send only the number? It should be in A^2, unit omitted.

MOLECULE	READOUT_UNIT	ENDPOINT_RESULT
CC(=O)NCCCC[C@@H]1NC(=O)[C@H](Cc2c[nH]c3c(C)cccc23)NC(=O)[C@H]([C@@H](C)O)NC(=O)[C@H](CC(N)=O)NC(=O)[C@@H](NC(=O)C(COCCOCC[N+](C)(C)C)NC(C)=O)C(C)(C)SSC(C)(C)[C@@H](C(=O)N[C@@H](Cc2ccc(OCCN)cc2)C(=O)N[C@@H](Cc2ccc3ccccc3c2)C(=O)NC2(C(=O)N[C@@H](CCC(=O)O)C(=O)N[C@@H](CC(N)=O)C(=O)N[C@@H](Cc3cccnc3)C(=O)N(C)CC(N)=O)CCOCC2)NC1=O (mixture of isomers)	A^2	185
COCC[N+](C)(C)CCc1cn(C[C@H](NC(=O)[C@H]2NC(=O)[C@H](CCCCN(C)C(C)=O)NC(=O)[C@H](Cc3c[nH]c4c(C)cccc34)NC(=O)[C@H]([C@@H](C)O)NC(=O)[C@H](CC(=O)N(C)C)NC(=O)[C@@H](NC(=O)CCOCCOCC[N+](C)(C)C)C(C)(C)SSC2(C)C)C(=O)N[C@@H](Cc2ccc3ccccc3c2)C(=O)NC2(C(=O)N[C@@H](CCCCN(C)C(C)=O)C(=O)N[C@@H](CC(N)=O)C(=O)N[C@@H](Cc3cccnc3)C(=O)N(C)CC(=O)N(C)C)CCOCC2)nn1	A^2	144

Give recorded EPSA. CC(=O)NCCCC[C@@H]1NC(=O)[C@H](Cc2c[nH]c3c(C)cccc23)NC(=O)[C@H]([C@@H](C)O)NC(=O)[C@H](CC(N)=O)NC(=O)[C@H](NC(C)=O)CSSC[C@@](C)(C(=O)N[C@@H](Cc2ccc(OCCCCC[N+](C)(C)C)cc2)C(=O)N[C@@H](Cc2ccc3ccccc3c2)C(=O)NC2(C(=O)N[C@@H](CCCCNC(C)=O)C(=O)N[C@@H](CC(N)=O)C(=O)N[C@@H](Cc3cccnc3)C(=O)N(C)CC(N)=O)CCOCC2)NC1=O
164
